- tested-target: AGO2 A367P (Homo sapiens, UniProt Q9UKV8 1-859, A367P;S387D;S824A;S828D;S831D;S834A)
- Sequence (Q9UKV8 whole entry A367P/S387D/S824A/S828D/S831D/S834A): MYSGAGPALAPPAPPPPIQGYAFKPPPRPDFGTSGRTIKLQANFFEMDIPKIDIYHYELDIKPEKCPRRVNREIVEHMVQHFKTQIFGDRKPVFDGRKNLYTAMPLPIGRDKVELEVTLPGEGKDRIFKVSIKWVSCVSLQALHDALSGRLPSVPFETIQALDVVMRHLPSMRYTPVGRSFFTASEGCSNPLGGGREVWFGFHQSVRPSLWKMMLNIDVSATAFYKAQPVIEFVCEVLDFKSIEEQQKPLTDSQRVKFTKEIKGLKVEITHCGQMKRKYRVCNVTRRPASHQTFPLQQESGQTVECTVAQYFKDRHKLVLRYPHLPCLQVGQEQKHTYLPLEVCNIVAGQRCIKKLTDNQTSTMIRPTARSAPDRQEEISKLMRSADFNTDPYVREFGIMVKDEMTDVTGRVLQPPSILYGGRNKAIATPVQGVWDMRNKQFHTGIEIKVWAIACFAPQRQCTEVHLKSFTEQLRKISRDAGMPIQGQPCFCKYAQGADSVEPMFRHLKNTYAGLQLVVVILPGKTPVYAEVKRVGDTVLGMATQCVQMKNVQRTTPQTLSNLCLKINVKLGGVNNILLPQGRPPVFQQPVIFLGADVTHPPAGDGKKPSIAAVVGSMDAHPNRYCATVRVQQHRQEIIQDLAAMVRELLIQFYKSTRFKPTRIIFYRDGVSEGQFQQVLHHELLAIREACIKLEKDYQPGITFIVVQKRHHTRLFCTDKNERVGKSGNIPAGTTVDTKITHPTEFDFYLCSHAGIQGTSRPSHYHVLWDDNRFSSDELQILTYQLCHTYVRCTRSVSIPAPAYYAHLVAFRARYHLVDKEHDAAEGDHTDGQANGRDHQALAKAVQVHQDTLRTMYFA
- protocol-summary: RNA Bind-n-Seq (nitrocellulose filter binding and sequencing); miR-122 guide loaded in AGO2; 60 min incubation; 30 mM Tris pH 8.0, 100 mM potassium acetate, 2 mM magnesium acetate, 0.5 mM TCEP, 0.005% NP-40, 0.01 mg/ml yeast tRNA; 3 nM AGO2-miR-122, 100 nM RNA library; 60; high values mean tight binding
- conditions: protein: recombinant; tags: His6 (N-terminal, pFastBac HTA)
Parameter: binding signal. Scope: all listed entries.

{"binder": "GCATCTCG (ssRNA, constant regions annealed to DNA blockers; guide miR-122 5' phosphate) RNA 1: GAGUUCUACAGUCCGACGAUCCCAACGCAUCUCGCACCUGGAAUUCUCGGGUGCCAA RNA 2: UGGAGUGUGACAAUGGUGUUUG DNA 1: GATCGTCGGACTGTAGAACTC DNA 2: TTGGCACCCGAGAATTCCA", "binding signal": "0.121 fold enrichment over input"}
{"binder": "ACGCTCCA (ssRNA, constant regions annealed to DNA blockers; guide miR-122 5' phosphate) RNA 1: GAGUUCUACAGUCCGACGAUCCCAACACGCUCCACACCUGGAAUUCUCGGGUGCCAA RNA 2: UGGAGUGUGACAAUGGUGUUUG DNA 1: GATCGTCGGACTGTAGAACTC DNA 2: TTGGCACCCGAGAATTCCA", "binding signal": "13.1 fold enrichment over input"}
